read-out: Interferon-gamma inducible Protein 10 (IP10), CXCL10 (gene 3627); assay: BSK_BE3C_IP10: BioMAP Diversity Plus: BE3C Assay for Interferon-gamma inducible Protein 10 (IP10) Biomarker Activity (AID 2283034); details: primary human bronchial epithelial cells; actives raise or lower the signal
Active and inactive are the calls of the source. The calls were made as follows: active = hit-call score of the fitted dose curve at least 0.9, where 1 is the maximum; inactive = score below 0.9.
Labels: TRUE = active, FALSE = inactive

1) NCC(F)(F)C(F)(F)C(F)(F)C(F)(F)C(F)(F)C(F)(F)F; FALSE
2) C=CC(=O)OCCC(F)(F)C(F)(F)C(F)(F)C(F)(F)F; FALSE
3) O=C(O)C(F)(F)C(F)(F)C(F)(F)OC(F)(F)F; FALSE
4) OC(O)C(F)(F)C(F)(F)F; FALSE
5) COC(F)(C(F)F)C(F)(F)F (centres undefined); FALSE
6) Cc1ccc(O)c(-n2nc3ccccc3n2)c1; FALSE
7) NC(=O)C(F)(F)C(F)(F)C(F)(F)C(F)(F)C(N)=O; FALSE
8) NC(=O)C(F)(F)C(F)(F)C(F)(F)C(F)F; FALSE
9) O=C1c2c(O)ccc(Nc3ccc(CCO)cc3)c2C(=O)c2c([N+](=O)[O-])ccc(O)c21; TRUE
10) C[Si](Cl)(Cl)CCC(F)(F)C(F)(F)C(F)(F)C(F)(F)C(F)(F)C(F)(F)F; FALSE
11) O=C(Cl)C(F)(F)C(F)(F)C(F)(F)C(F)(F)C(F)(F)C(F)(F)F; FALSE
12) C=C(C)C(=O)OCC(F)(F)C(F)(F)C(F)(F)C(F)F; FALSE
13) CCN(CC)c1ccc(C=O)c(O)c1; FALSE
14) Nc1cc([N+](=O)[O-])cc(Cl)c1O; TRUE
15) C[C@]12CC[C@H]3C(=CCc4cc(O)ccc43)[C@@H]1CCC2=O; TRUE
16) O=C=NCc1cccc(CN=C=O)c1; FALSE
17) O=C(O)C(F)(F)C(F)(F)C(F)(F)C(F)(F)C(F)(F)C(F)(F)C(F)F; FALSE
18) FC(F)(F)C(F)(F)C(F)(F)C(F)(F)C(F)(F)C(F)(F)CC[Si](Cl)(Cl)Cl; FALSE
19) CCOC(C=C(C)CCC=C(C)C)OCC; FALSE
20) NC(=O)C(F)(F)C(F)(F)C(F)(F)C(F)(F)C(F)(F)C(F)(F)C(F)(F)F; FALSE
21) CCN(CC)c1ccc(N=Nc2ccccc2)cc1; TRUE
22) O=C(F)C1(F)C(F)(F)C(F)(F)C(F)(F)C(F)(F)C1(F)F; FALSE
23) O=C(O)C(F)(F)C(F)(F)C(F)(F)OC(F)(C(F)(F)F)C(F)(F)F; FALSE
24) O=C=Nc1cccc2c(N=C=O)cccc12; FALSE
25) NCC(F)(F)C(F)(F)C(F)(F)C(F)(F)C(F)(F)C(F)(F)C(F)(F)C(F)(F)F; FALSE
26) CN(C(=O)C(F)(F)C(F)(F)C(F)(F)F)[Si](C)(C)C; FALSE
27) O=S(=O)(OCC(F)(F)F)C(F)(F)C(F)(F)C(F)(F)C(F)(F)F; FALSE
28) Brc1nc2ccccc2s1; FALSE
29) Cc1cnccn1; FALSE
30) CC(C)CCCC(C)CCO (centres undefined); TRUE
31) O=C(O)C(F)(F)C(F)(F)C(F)(F)C(=O)O; FALSE
32) Cc1cc(O)c(C(C)(C)C)cc1C(C)(C)C; TRUE
33) O=C(O)CCC(F)(F)C(F)(F)C(F)(F)F; FALSE
34) OCCCCC(F)(F)C(F)(F)C(F)(F)C(F)(F)F; FALSE
